Would you mind telling me the reported Antiretroviral drug Concentration of each entry?
format: in vivo; conditions: trough plasma; Cycle 1 Day 15; selumetinib starting dose 75 mg bd; individual patients
Report only the number, with the unit ng/mL understood.

[in] Any idea what Antiretroviral drug Concentration was measured for COC(=O)N[C@H](C(=O)N[C@@H](Cc1ccccc1)[C@@H](O)CN(Cc1ccc(-c2ccccn2)cc1)NC(=O)[C@@H](NC(=O)OC)C(C)(C)C)C(C)(C)C ?
[out] 5797

[in] Repeat with Nc1ccn([C@@H]2CS[C@H](CO)O2)c(=O)n1
[out] 512

[in] Repeat with Nc1nc(NC2CC2)c2ncn([C@H]3C=C[C@@H](CO)C3)c2n1
[out] 246

[in] Repeat with O=C1Nc2ccc(Cl)cc2[C@@](C#CC2CC2)(C(F)(F)F)O1
[out] 3139

====

Would you mind telling me the reported Antiretroviral drug Concentration of each entry?
format: in vivo; conditions: trough plasma; Cycle 1 Day 1 (pre-selumetinib); selumetinib starting dose 75 mg bd; individual patients
Report only the number, with the unit ng/mL understood.

[in] Any idea what Antiretroviral drug Concentration was measured for Nc1ccn([C@@H]2CS[C@H](CO)O2)c(=O)n1 ?
[out] 817

[in] Repeat with Nc1nc(NC2CC2)c2ncn([C@H]3C=C[C@@H](CO)C3)c2n1
[out] 1060

[in] Repeat with O=C1Nc2ccc(Cl)cc2[C@@](C#CC2CC2)(C(F)(F)F)O1
[out] 3378

[in] Repeat with COC(=O)N[C@H](C(=O)N[C@@H](Cc1ccccc1)[C@@H](O)CN(Cc1ccc(-c2ccccn2)cc1)NC(=O)[C@@H](NC(=O)OC)C(C)(C)C)C(C)(C)C
[out] 758
